# System: NCI-H522 lung
# assay_explanation: NCI-60 one-dose screen, 48 h
# stated_conditions: 10 µM unless noted
This is part of a sample that, as a whole, favours compounds with a hit. Of some 83,000 tested, about 20% had one in any assay. Active and inactive are the calls of the source. How the source made its calls: active means growth percent below 10; inactive means the rest.
Answer with one of the outcomes active, inactive

Worked set:
CCCCCCCCCCCCNC(c1ccccc1)C(O)c1ccccc1 (stereo not drawn)
inactive
C=CCn1cc(C=C2C(=O)N(C)C(=O)N(C)C2=O)c2ccccc21
inactive
Cc1cccc(N2CCN(C(C)C#N)CC2)c1 (stereo not drawn)
inactive
O=[N+]([O-])c1cc([N+](=O)[O-])c(Nn2c3ccccc3c3ccccc32)c([N+](=O)[O-])c1
active
C[C@]12CCc3sc(-c4cccc(F)c4)nc3C1=CC[C@@H]1[C@@H]2CC[C@]2(C)C(=O)CC[C@@H]12
active

Query: Recorded test call requested for O=C([O][Hg][CH2]C1OCCOC1[CH2][Hg][O]C(=O)c1ccccc1)c1ccccc1 (stereo not drawn)
Result: active

Query: Recorded test call requested for COC(C(=O)[C@@H](O)[C@@H](C)O)[C@@H]1Cc2cc3cc(O[C@H]4C[C@@H](O[C@H]5C[C@@H](O)[C@H](O)C(C)O5)[C@H](O)C(C)O4)c(C)c(O)c3c(O)c2C(=O)[C@H]1O[C@H]1C[C@@H](O[C@H]2C[C@@H](O[C@H]3C[C@@H](O)[C@@H](O)C(C)O3)[C@@H](O)C(C)O2)[C@H](O)C(C)O1 (stereo partly drawn)
Result: active

Query: Recorded test call requested for CCOC(=O)[C@@H](C)C[C@H](Cc1ccccc1)NC(=O)c1csc([C@@H](C[C@H](C(C)C)N(C)C(=O)[C@@H](NC(=O)[C@H]2C[C@H](O)CCN2C)C(C)C)OC(C)=O)n1
Result: active

---

# System: PC-3 prostate
# assay_explanation: NCI-60 one-dose screen, 48 h (100 = growth as untreated, 0 = no growth, -100 = all killed)
# stated_conditions: 10 µM unless noted
Compounds without any hit were thinned out: in the full panel of roughly 83,000, 20% have a hit.
Listed here: items and their measured growth.
Give just the numeric value; % need not be written.

Consider the reported growth for these compounds:
CO[C@H]1CC[C@@]2(C)C(=CC[C@@H]3[C@@H]2CC[C@]2(C)C(=O)C(=O)C[C@@H]32)C1
84.2
CCC(O)(CN)c1ccccc1 (stereo not given)
87.5

Consider CN1CCC(c2c[nH]c3ccccc23)C1 (stereo not given) . Its measured growth is 112

Consider Clc1ccc(N2COOC3(OOC2)C2CC4CC(C2)CC3C4)cc1 . Its measured growth is 53.7

Consider CCCC[C@H](NC(=O)[C@H]1CCCCN1C)C(=O)N(C)[C@H](C[C@@H](OC(C)=O)c1nc(C(=O)N[C@@H](Cc2ccccc2)C[C@H](C)C(=O)OCC)cs1)C(C)C . Its measured growth is 17.5

Consider O=C1C2CC=CCC2C(=O)N1SC(Cl)(Cl)Cl (stereo not given) . Its measured growth is 81.9

---

# Tested on: IGROV1 ovarian
# assay_explanation: NCI-60 one-dose screen, 48 h
# stated_conditions: 10 µM unless noted
This is part of a sample that, as a whole, favours compounds with a hit. Of some 83,000 tested, about 20% had one in any assay. Active and inactive are the calls of the source. Rule for the calls: active = growth percent below 10; inactive = the rest.
Answer with one of the outcomes yes = active, no = inactive

Worked set:
COc1cccc2c1c(C(=O)C(=O)Nc1ccn[nH]1)cn2Cc1ccc(F)cc1
no
CC(=O)[C@H]1CC[C@H]2[C@@H]3CC[C@H]4C[C@H](N)CC[C@]4(C)[C@H]3CC[C@]12C
no
CCCCN1CCCC[C@@H]1C(=O)N[C@H](C(=O)N(C)[C@H](CCc1nc(C(=O)N[C@@H](Cc2ccccc2)C[C@H](C)C(=O)OC)cs1)C(C)C)[C@@H](C)CC
no

Query: Recorded test call requested for COc1ccc(C2=N[C@@H](Cc3ccccc3)C(=O)Nc3ccsc32)cc1
Result: no

Query: Recorded test call requested for C[N+](C)(C)Cc1cc(Cl)ccc1O
Result: no

Query: Recorded test call requested for CC(C)[C@@H]1NC(=O)[C@]2(C)CSC(=N2)c2csc(n2)CNC(=O)C[C@@H](/C=C/CCS)OC1=O
Result: yes

Query: Recorded test call requested for COC(=O)N[C@H]1CCc2c(Br)c(OC)c(OC)c(OC)c2-c2ccc(SC)c(=O)cc21
Result: yes

---

Listed here: items and their measured growth.
# Tested on: CAKI-1 renal
# assay_explanation: NCI-60 one-dose screen, 48 h (100 = growth as untreated, 0 = no growth, -100 = all killed)
# stated_conditions: 10 µM unless noted
The panel holds about 83,000 compounds, 20% with a hit somewhere; the sample as a whole holds those more often.
Give just the numeric value; % need not be written.

Consider the reported growth for these molecules:
CC(C)OC(=O)[C@H](C)NP(=O)(Oc1ccccc1)C1CCCN(O)C1=O (some centres undefined)
104
CO[C@H]1CC[C@@]2(C)C(=CC[C@@H]3[C@@H]2CC[C@]2(C)C(=O)C(=O)C[C@@H]32)C1
93
COC(=O)[C@H](Cc1c[nH]c2ccccc12)NC(=O)[C@@H](OC)[C@@H]1Cc2cc3cc(OC4CC(OC5CC(O)C(O)C(C)O5)C(O)C(C)O4)c(C)c(O)c3c(O)c2C(=O)[C@H]1OC1CC(OC2CC(OC3CC(C)(O)C(O)C(C)O3)C(O)C(C)O2)C(O)C(C)O1 (some centres undefined)
19.5

Read the next record carefully.
Consider C[C@]12CC[C@H]3[C@@H](C[C@@H]4SC(Nc5ccccc5)=N[C@@]45CC(O)CC[C@]35C)[C@@H]1CCC2O (some centres undefined) . Its measured growth is 49

---

# Tested on: UO-31 renal
# assay_explanation: NCI-60 one-dose screen, 48 h
# stated_conditions: 10 µM unless noted
Compounds without any hit were thinned out: in the full panel of roughly 83,000, 20% have a hit. The source made the active and inactive calls. The calls were made as follows: active = growth percent below 10; inactive = the rest.
Answer with one of the outcomes Yes = active, No = inactive

Worked set:
CC[C@]12C=CCN3CC[C@@]4(c5ccc(OC)cc5N(C)[C@H]4[C@@](O)(C(=O)OC)[C@@H]1OC(=O)CCCC[P+](c1ccccc1)(c1ccccc1)c1ccccc1)[C@@H]32
No
COC(=O)[C@@H](C)C[C@H](Cc1ccccc1)NC(=O)c1nc([C@@H](C[C@H](C(C)C)N(C)C(=O)[C@@H](NC(=O)[C@H]2CCCCN2C)C(C)C)OC(C)=O)sc1C
No

Here is another molecule to look at.
Query: Recorded test call requested for COc1ccc(N(CC(=O)NCCC[Te]c2ccccc2)C(=O)CNC(=O)OC(C)(C)C)cc1
Result: Yes

---

# Test system: MDA-MB-435 melanoma
# assay_explanation: NCI-60 one-dose screen, 48 h
# stated_conditions: 10 µM unless noted
The panel holds about 83,000 compounds, 20% with a hit somewhere; the sample as a whole holds those more often. Activity calls are given as the source filed them. The calls were made as follows: active = growth percent below 10; inactive = the rest.
Answer with one of the outcomes true = active, false = inactive

Cc1cc(N(CCCl)CCCl)ccc1C=Nc1cccnc1
false
CC(=O)OCC1O[C@@H]([S-])C(OC(C)=O)[C@H](OC(C)=O)[C@@H]1OC(C)=O.[Au+].c1ccc(CN2[CH-]N(Cc3ccccc3)C(c3ccccc3)=C2c2ccccc2)cc1
false
COC(=O)[C@H](Cc1ccccc1)NC(=O)c1csc([C@@H](C[C@H](C(C)C)N(C)C(=O)[C@@H](NC(=O)[C@H]2CCCCN2C)C2CC2)OC(C)=O)n1
true
CCn1nccc1NC(=O)C(=O)c1cn(Cc2ccc(F)cc2)c2cccc(OC)c12
false

Query: Recorded test call requested for COc1cc(/C=C\c2cc(OC)c(OC)c(OC)c2)cc(NS(=O)(=O)c2cccc(Cl)c2)c1OC
Result: true

Query: Recorded test call requested for O=[As](O)(O)c1ccccc1[As](=O)(O)O
Result: false

Query: Recorded test call requested for CC(CO)NC1CCCCC1 (centres undefined)
Result: false

Query: Recorded test call requested for COc1cc(/C=C/[N+](=O)[O-])c([N+](=O)[O-])cc1OC
Result: false

Query: Recorded test call requested for COc1ccc2nc(NC(=O)COc3cc(/C=C\c4cc(OC)c(OC)c(OC)c4)ccc3OC)sc2c1
Result: true

---

# System: SNB-19 CNS
# assay_explanation: NCI-60 one-dose screen, 48 h (100 = growth as untreated, 0 = no growth, -100 = all killed)
# stated_conditions: 10 µM unless noted
# Experimental: Growth inhibition of the SNB-19 human tumor cell line is measured as a screen for anti-cancer activity. Cells are grown in 96 well plates and exposed to the test compound for 48 hours. Compounds are tested at a single concentration, which is 10^-5 M for most compounds. The reported endpoint is percent growth (GI% or GIPRCNT), where numbers from 0 - 100% represent growth inhibition, and numbers from -100% - 0 represent cell death. For example, a value of 40 represents 60% growth inhibition. […]
The panel holds about 83,000 compounds, 20% with a hit somewhere; the sample as a whole holds those more often.
Param label: returns condition met when growth < 50%, returns condition not met otherwise, including exact equality.

CCC(O)(CN)c1ccccc1 (stereo not given)
condition not met
CCCCN(CCCC)P(=O)(Oc1ccccc1)Oc1ccccc1
condition not met
COC(=O)[C@@H](NC(=O)c1cn(CCC2CCCCC2)c2ccccc12)C(C)(C)C
condition not met

Query: API: query returns whether the compound falls strictly under 50% in growth. Query: Cc1ccc2c(C(C[N+](=O)[O-])c3cccs3)c(-c3ccccc3)[nH]c2c1 (stereo not given)
Result: condition met

Query: API: query returns whether the compound falls strictly under 50% in growth. Query: Nc1ccc2c(c1)oc1ccccc12
Result: condition not met

Query: API: query returns whether the compound falls strictly under 50% in growth. Query: NC(=Nc1ccccc1)N[N+](=O)[O-]
Result: condition not met

Query: API: query returns whether the compound falls strictly under 50% in growth. Query: NC(=O)C(Br)c1ccccc1 (stereo not given)
Result: condition not met

Query: API: query returns whether the compound falls strictly under 50% in growth. Query: CCCCN1CCCC[C@@H]1C(=O)N[C@H](C(=O)N(C)[C@H](CCc1nc(C(=O)N[C@@H](Cc2ccccc2)C[C@H](C)C(=O)OC)cs1)C(C)C)[C@@H](C)CC
Result: condition not met

Query: API: query returns whether the compound falls strictly under 50% in growth. Query: CC(=O)O[C@H]1C(=O)[C@@]2(C)[C@H]([C@H](OC(=O)c3ccccc3)[C@]3(O)C[C@H](OC(=O)[C@H](OC(=O)OC[C@@H]4COC(C)(C)O4)[C@@H](NC(=O)c4ccccc4)c4ccccc4)C(C)=C1C3(C)C)[C@]1(OC(C)=O)CO[C@@H]1C[C@@H]2O
Result: condition met

Query: API: query returns whether the compound falls strictly under 50% in growth. Query: COc1ccc(/C=C\c2cc(OC)c(OC)c(OC)c2)cc1OCC(=O)Nc1nc2ccc(OC(F)(F)F)cc2s1
Result: condition met

Query: API: query returns whether the compound falls strictly under 50% in growth. Query: CC12CC=CCC1CCC1C2CCC2(C)C(c3ccc(=O)oc3)CCC12O (stereo not given)
Result: condition met

Query: API: query returns whether the compound falls strictly under 50% in growth. Query: CN(C)C(=O)Oc1ccccc1-c1ccccc1
Result: condition not met

Query: API: query returns whether the compound falls strictly under 50% in growth. Query: COC1OC(CO)C(O)C(O)[CH]1[Hg][O]C(C)=O (stereo not given)
Result: condition not met

Query: API: query returns whether the compound falls strictly under 50% in growth. Query: CN[C@]1(c2ccccc2Cl)CCCC[C@H]1NCCCN1CCN(C)CC1
Result: condition not met

Query: API: query returns whether the compound falls strictly under 50% in growth. Query: CCCCCCCCCCCCCC[P+](CCCCCC)(CCCCCC)CCCCCC
Result: condition met

Query: API: query returns whether the compound falls strictly under 50% in growth. Query: CC[C@H](C)[C@H](NC(=O)c1nccn1C)C(=O)N(C)[C@H](C[C@@H](OC(C)=O)c1nc(C(=O)N[C@@H](Cc2ccccc2)C[C@H](C)C(=O)OC)cs1)C(C)C
Result: condition met
